Entry source: ChEMBL document CHEMBL3112425

System: LNCaP
Assay: Cytotoxicity against human LNCAP cells after 72 hrs by MTT assay
Type: functional, cell-based
Square brackets hold non-standard residues; d marks the D form. Peptide text beside a SMILES is read from it. * marks the point of attachment. NH(4-amidinobenzyl) = N=C(N)c1ccc(CN*)cc1; X2 = N=C(N)NCCCN(CC(N)=O)N*; Nle = CCCC[C@H](N)C(=O)O; X1 = N=C(N)NC/C=C/CN*
Measure Name: IC50
The answer consists of two parts: a number and, after it, its unit.

Example entries begin here.
Recorded IC50 of CCCC[C@H](NC(C)=O)C(=O)N[C@@H](CC(C)C)C(=O)N[C@@H](CC(C)C)C(=O)N[C@@H](CCCC)C(=O)N[C@@H](CCCNC(=N)N)C(=O)N[C@H](C(=O)N[C@@H](CCCCN)C(=O)N[C@@H](CCCNC(=N)N)C(N)=O)C(C)C , please.
90 µM

Recorded IC50 of CC(=O)N[C@@H](CC(C)C)C(=O)N[C@@H](CC(C)C)C(=O)N[C@@H](CC(C)C)C(=O)N[C@@H](CC(C)C)C(=O)N[C@@H](CCCNC(=N)N)C(=O)N[C@H](C(=O)N[C@@H](CCCCN)C(=O)NC/C=C/CNC(=N)N)C(C)C (Ac-LLLLRVK-X1) , please.
70 µM

Recorded IC50 of CC(=O)N[C@@H](CC(C)C)C(=O)N[C@@H](CC(C)C)C(=O)N[C@@H](CC(C)C)C(=O)N[C@@H](CC(C)C)C(=O)N[C@@H](CCCNC(=N)N)C(=O)N[C@H](C(=O)N[C@@H](CCCCN)C(=O)NN(CCCNC(=N)N)CC(N)=O)C(C)C (Ac-LLLLRVK-X2) , please.
240 µM

Recorded IC50 of CC(=O)N[C@@H](CC(C)C)C(=O)N[C@@H](CC(C)C)C(=O)N[C@H](CC(C)C)C(=O)N[C@@H](CC(C)C)C(=O)N[C@@H](CCCNC(=N)N)C(=O)N[C@H](C(=O)N[C@@H](CCCCN)C(=O)N[C@@H](CCCNC(=N)N)C(N)=O)C(C)C , please.
130 µM

Recorded IC50 of CC(=O)N[C@H](CC(C)C)C(=O)N[C@@H](CC(C)C)C(=O)N[C@@H](CC(C)C)C(=O)N[C@@H](CC(C)C)C(=O)N[C@@H](CCCN=C(N)N)C(=O)N[C@H](C(=O)N[C@@H](CCCCN)C(=O)N[C@@H](CCCN=C(N)N)C(N)=O)C(C)C , please.
150 µM

Recorded IC50 of CCCC[C@H](NC(C)=O)C(=O)N[C@@H](CC(C)C)C(=O)N[C@@H](CC(C)C)C(=O)N[C@@H](CC(C)C)C(=O)N[C@@H](CCCNC(=N)N)C(=O)N[C@H](C(=O)N[C@@H](CCCCN)C(=O)N[C@@H](CCCNC(=N)N)C(N)=O)C(C)C , please.
180 µM

Take each entry in turn and give its IC50.
1. CC(=O)N[C@@H](CC(C)C)C(=O)N[C@@H](CC(C)C)C(=O)N[C@@H](CC(C)C)C(=O)N[C@@H](CC(C)C)C(=O)N[C@@H](CCCNC(=N)N)C(=O)N[C@H](C(=O)N[C@@H](CCCCN)C(=O)NCc1ccc(C(=N)N)cc1)C(C)C (Ac-LLLLRVK-{NH(4-amidinobenzyl)})
2. CCCC[C@H](NC(=O)[C@H](CC(C)C)NC(=O)[C@H](CC(C)C)NC(=O)[C@H](CC(C)C)NC(C)=O)C(=O)N[C@@H](CCCNC(=N)N)C(=O)N[C@H](C(=O)N[C@@H](CCCCN)C(=O)N[C@@H](CCCNC(=N)N)C(N)=O)C(C)C (Ac-LLL[Nle]RVKR-NH2)

40 µM
220 µM

Recorded IC50 of CCCC[C@@H](NC(C)=O)C(=O)N[C@@H](CC(C)C)C(=O)N[C@@H](CC(C)C)C(=O)N[C@@H](CC(C)C)C(=O)N[C@@H](CCCNC(=N)N)C(=O)N[C@H](C(=O)N[C@@H](CCCCN)C(=O)N[C@@H](CCCNC(=N)N)C(N)=O)C(C)C , please.
90 µM
